System: HCT-15 colon
Test: NCI-60 one-dose screen, 48 h (100 = growth as untreated, 0 = no growth, -100 = all killed)
Conditions: 10 µM
The panel holds about 83,000 compounds, 20% with a hit somewhere; the sample as a whole holds those more often.
Could you label it 1 (yes) if measured growth is 70% or higher, and 0 (no) otherwise?

| MOLECULE | ASSAY_SYSTEM | LABEL |
| --- | --- | --- |
| C=C(C)[C@@H]1CC[C@]2(C)[C@H](CC=C3[C@@H]4CC(C)(C)CC[C@]4(C(=O)N4CCOCC4)CC[C@]32C)[C@@]1(C)CCCN | HCT-15 colon | 0 (no) |
| COc1cccc(-c2ccc(/C=N/NC(=O)c3[nH]c4ccc(Br)cc4c3-c3ccccc3)o2)c1 | HCT-15 colon | 0 (no) |
| Cc1cc(C)nc(NS(=O)(=O)c2ccc(N/C(N)=N/c3nccc(-c4cccs4)n3)cc2)n1 | HCT-15 colon | 1 (yes) |
| O=C(CNc1nc(-c2ccccc2)cs1)Nc1cccc([N+](=O)[O-])c1 | HCT-15 colon | 0 (no) |
| O=C(Nc1ccc(F)c(Cl)c1)c1cc(-c2ccc(F)cc2F)ccc1O | HCT-15 colon | 0 (no) |
| O=c1c2ccccc2nc(COc2ccccc2)n1/N=C/c1ccc(N2CCCC2)cc1 | HCT-15 colon | 1 (yes) |
| Brc1ccc(N/N=C/c2c[nH]c3ccccc23)nc1 | HCT-15 colon | 0 (no) |
| Cc1ccc(C(=O)CSc2nnc(-c3c[nH]c4ccccc34)n2-c2ccccc2)cc1 | HCT-15 colon | 0 (no) |
| Cc1ccc(C(C)C)cc1NC(=O)c1ccccc1N(C)C | HCT-15 colon | 1 (yes) |
| CCCCSc1nc(Nc2ccc(/C(C)=N/NC(N)=S)cc2)c(C#N)c(-c2ccccc2)n1 | HCT-15 colon | 0 (no) |
| CCOC(=O)CNC(=O)CN(Cc1ccccc1)C(=O)[C@@]1(C)CCC[C@]2(C)[C@H]3CC4C(C(C)C)=C[C@]3(CC[C@H]21)[C@@H]1C(=O)CCC(=O)[C@H]41 | HCT-15 colon | 0 (no) |
| Cc1ccc(-c2nc(Nc3ccc(C)c(S(N)(=O)=O)c3)c3ccccc3n2)cc1 | HCT-15 colon | 0 (no) |
| CCN1CCN(Cc2ccc(NC(=O)c3cccc(-n4cc(-c5ccc(NC(C)=O)nc5)nn4)c3)cc2C(F)(F)F)CC1 | HCT-15 colon | 1 (yes) |
| COc1ccc(N(C)c2cc(C#N)nc3ccccc23)cc1N | HCT-15 colon | 0 (no) |
| O=C(Nc1ccncc1)c1ccc(-n2c(=O)[nH]c3ccccc3c2=O)cc1 | HCT-15 colon | 1 (yes) |
| CC(=O)NS(=O)(=O)c1ccc(NC(=O)CSC2=NC(c3ccccc3)C(C(C)=O)=C(C)N2)cc1 (centres undefined) | HCT-15 colon | 1 (yes) |
| O=C(NO)c1ccc(CNc2nc(-c3ccccc3)c3ccccc3n2)cc1 | HCT-15 colon | 0 (no) |
| CN1C(=O)N(C)C2SC(N/N=C/c3ccc(F)cc3)=NC21 (centres undefined) | HCT-15 colon | 0 (no) |

---

Tested on: SK-OV-3 ovarian
Test: NCI-60 one-dose screen, 48 h (100 = growth as untreated, 0 = no growth, -100 = all killed)
Settings: 10 µM
This is part of a sample that, as a whole, favours compounds with a hit. Of some 83,000 tested, about 20% had one in any assay.
REPORTED_METRIC: growth (%)

| COMPOUND | UNITS_SYMBOL | ASSAY_VALUE |
| --- | --- | --- |
| COc1cc(NC(=O)CSc2nnc(-c3ccc4nc(-c5ccc(Cl)cc5)[nH]c4c3)o2)cc(OC)c1OC | % | 101 |
| CCOC(=O)C1NN(c2ccc(S(N)(=O)=O)cc2)c2nc3nc(-c4cccs4)cc(-c4cccs4)c3c(=O)n21 (stereo not drawn) | % | 93.6 |
| Cc1ccc([N+](=O)[O-])c(C(=O)Nc2ccc(-c3ccc4c(c3)NC(=O)/C4=C\c3ccc[nH]3)cc2)c1 | % | 109 |
| Cn1c(O)c(N=Nc2nc(-c3cc4ccccc4oc3=O)cs2)c2cc(Br)ccc21 | % | 57.7 |
| CC1=C2C(=C[C@@](C)(COCOCCCl)[C@@H]2O)C(=O)[C@](C)(O)C12CC2 | % | -33.7 |
| COc1ccc(-c2cc(C(=O)N=Nc3c(O)[nH]c4ccc(Br)cc34)c3ccccc3n2)cc1 | % | 114 |
| Clc1cccc(N/N=C/c2c[nH]c3ccccc23)n1 | % | 63.7 |
| COc1cc(/C=C/C(=O)c2ccc(NC(=O)CSc3nnc(-c4c[nH]c5ccccc45)n3-c3ccccc3)cc2)cc(OC)c1OC | % | 121 |

---

Tested on: RPMI-8226 leukemia
Assay: NCI-60 one-dose screen, 48 h (100 = growth as untreated, 0 = no growth, -100 = all killed)
Details: 10 µM
This is part of a sample that, as a whole, favours compounds with a hit. Of some 83,000 tested, about 20% had one in any assay.
Could you label it class 1 if measured growth is 20% or higher, and class 0 otherwise?

| COMPOUND | LABEL |
| --- | --- |
| COc1ccc2nc(Cl)c(-c3cc(-c4ccccc4)nc(N)n3)cc2c1 | class 0 |
| N#Cc1c(NC(=O)c2ccc(C(F)(F)F)cc2)sc2c1CCC(=O)C2 | class 0 |
| COc1ccc(C(=O)/C=C/c2ccc(Cl)c(C(F)(F)F)c2)cc1S(N)(=O)=O | class 0 |
| Cc1ccc(-c2nc3ccc(C(=O)N=Nc4c(O)[nH]c5ccc([N+](=O)[O-])cc45)cc3[nH]2)cc1 | class 1 |
| CN(C)CCNC(=O)OCCCCOc1cc(O)c2c(=O)cc(-c3ccccc3)oc2c1 | class 0 |
| N#Cc1c(NC(=O)c2ccc(C(F)(F)F)cc2)sc2c1CCC(O)=C2 | class 0 |
| COc1ccc(-c2cc(-c3cc(C(=O)c4ccc(Br)cc4)n4ccc(C)cc34)nc(N)c2C#N)cc1 | class 1 |
| Cc1ccc(/C(N)=N/c2sc(-c3ccccc3)nc2-c2ccccc2)cc1 | class 1 |
| COc1cc(/C=C/C(=O)c2ccc(S(=O)(=O)NCCNc3nc(Nc4ccc(F)cc4)nc(N(C)C)n3)cc2)cc(OC)c1OC | class 0 |
| O=c1cc(-c2ccccc2)oc2cc(OCCCCNCc3ccccc3)cc(O)c12 | class 0 |
| C=C1CCC2C3(C)COC(c4cccc(F)c4)OC3CCC2(C)C1CC(O)C1=CCOC1=O (configuration not stated) | class 1 |
| Cc1ccc(/C=C/C(=O)c2ccc(NC(=O)CSc3nnc(-c4c[nH]c5ccccc45)n3-c3ccccc3)cc2)c(C)c1 | class 1 |
| CN(C)c1nc(NCCNS(=O)(=O)c2ccc(C(=O)/C=C/c3ccccc3)cc2)nc(Nc2ccc(F)cc2)n1 | class 0 |
| O=C(NO)c1ccc(CNC(=O)[C@H]2Cc3c([nH]c4ccccc34)[C@H](c3ccc(Cl)cc3)N2)cc1 | class 0 |
| COc1cccc(/C=C2\N=C(C)N(CCc3ccc(S(N)(=O)=O)cc3)C2=O)c1 | class 1 |
| O=C(Cn1cc(CSc2nnc3oc4ccccc4n23)nn1)Nc1cccc(Cl)c1 | class 1 |
| CCOP(=O)(OCC)O[C@H]1CCC(=O)[C@@H]2[C@H]1[C@H]1C[C@@H]3[C@@]4(C)CCCC(C)(C(=O)OC)[C@@H]4CC[C@@]23C=C1C(C)C (some centres not stated) | class 1 |
| CC(C)(C)Nc1nc2cc(Cl)c(Cl)cc2nc1S(C)(=O)=O | class 1 |
| O=C1Nc2cc(-c3ccc(NC(=O)c4cccs4)cc3)ccc2/C1=C/c1ccc[nH]1 | class 1 |
| O=C1CCC(N2Cc3cc(CC(=O)Nc4ccc(N5CCCCC5)cc4)ccc3C2=O)C(=O)N1 (configuration not stated) | class 1 |
| C=C1CCC2C3(C)COC(c4c(F)cccc4F)OC3CCC2(C)C1CC(O)C1=CCOC1=O (configuration not stated) | class 0 |
| O=C(NCCCCCCCCCC[P+](c1ccccc1)(c1ccccc1)c1ccccc1)c1ccc(-n2nc(-c3ccccc3O)nc2-c2ccccc2O)cc1 | class 0 |
| O=C(N/N=C/c1ccc(B(O)O)o1)c1[nH]c2ccc(Br)cc2c1-c1ccccc1 | class 1 |
| Cc1cccc2cc(-c3cc(-c4ccccc4)nc(=O)[nH]3)c(Cl)nc12 | class 0 |
| CO[C@@H]1CSSC1Cn1nc(-c2ccc(Oc3ccccc3)cc2)c2c(N)ncnc21 (some centres not stated) | class 1 |
| O=C(CN1CCN(c2ncnc3c2cnn3-c2ccccc2)CC1)Nc1nncs1 | class 0 |
| CCN(CC)CCOc1ccc(C(=C(C)c2ccccc2)c2ccc(OCCN(CC)CC)cc2)cc1 | class 0 |
| CN1CCN(c2ccc(Nc3nc(N4CCN(S(=O)(=O)c5ccc(Cl)cc5)CC4)c4sccc4n3)cc2)CC1 | class 0 |
| COc1cc(NC(=O)c2cc(-c3ccc(F)cc3F)ccc2O)cc(OC)c1OC | class 0 |
| COc1cccc(COc2ccc(/C=C3\Oc4cc(O)ccc4C3=O)cc2)c1 | class 1 |
| O=C(Nc1ccncc1)c1ccc(-n2c(=O)[nH]c3ccccc3c2=O)cc1 | class 1 |
| CC(=C(c1ccc(OCCN2CCCCC2)cc1)c1ccc(OCCN2CCCCC2)cc1)c1ccccc1 | class 0 |
| Cc1noc2c(Cc3ccccc3)nn(CC(=O)N/N=C/c3ccc(Br)cc3)c(=O)c12 | class 1 |
| Cc1ccc(C(=O)N/C(=C2/OCCN2C)[P+](c2ccccc2)(c2ccccc2)c2ccccc2)cc1 | class 1 |
| COc1ccc(C(=O)/C=C/c2cc(C(F)(F)F)cc(C(F)(F)F)c2)cc1S(N)(=O)=O | class 0 |
| C=C1CCC2C3(C)COC(c4ccccc4F)OC3CCC2(C)C1C/C=C1/C(=O)OCC1O (configuration not stated) | class 0 |
